Reference source: ChEMBL document CHEMBL1142896

- PROTOCOL_TEXT: Half life of hydrolysis in phosphate buffer at pH 7.4
- Assay type: ADME
PROPERTY_NAME: half-life (h)
Express the result in h but write the number alone.

Q) Annotate the compound Cc1ccccc1OCC(O)CO (stereo unspecified) [MEPHENESIN] with its measured half-life.
A) 19.9
